assay: Serum stability assay; assay type: in vitro ADME, mouse; settings: male, BL6; 20% mouse serum, 37° C., RP-HPLC peak area 214 nm; read-out: peptide recovered after 2 hrs
Property label: remaining at 2 h, 0.091 mg/ml (%)
Answer format: numeric, % implied, no suffix.

[ask] Which value of remaining at 2 h, 0.091 mg/ml has been reported for CC[C@H](C)[C@H](NC(=O)[C@@H](NC(=O)[C@@H](N)CO)[C@@H](C)CC)C(=O)N[C@@H](CC(N)=O)C(=O)N[C@@H](Cc1ccccc1)C(=O)N[C@@H](CCC(=O)O)C(=O)N[C@@H](CCCCN)C(=O)N[C@@H](CC(C)C)C(=O)O [Peptide 1, SIINFEKL, reference compound] in the records?
[reply] 5

[ask] Same thing, different molecule: CC[C@H](C)[C@H](NC(=O)CC(N)CO)C(=O)N[C@H](C(=O)N[C@@H](CC(N)=O)C(=O)N[C@@H](Cc1ccccc1)C(=O)N[C@@H](CCC(=O)O)C(=O)N[C@@H](CCCCN)C(=O)N[C@@H](CC(C)C)C(=O)O)[C@@H](C)CC (stereo partly drawn) [Peptide 2]
[reply] 10

====

Entries and their remaining at 2 h, 0.091 mg/ml values follow.
assay: Serum stability assay; type: in vitro ADME, mouse; details: male, BL6, mouse, serum
Answer format: numeric, % implied, no suffix.

- Compound: "CCC(C)C(CC(=O)N[C@@H](CC(N)=O)C(=O)N[C@@H](Cc1ccccc1)C(=O)N[C@@H](CCC(=O)O)C(=O)N[C@@H](CCCCN)C(=O)N[C@@H](CC(C)C)C(=O)O)NC(=O)[C@@H](NC(=O)[C@@H](N)CO)[C@@H](C)CC (stereo partly drawn) [Peptide 4]"
  Units text: "%"
  remaining at 2 h, 0.091 mg/ml: 8

[ask] Which value of remaining at 2 h, 0.091 mg/ml has been reported for CC[C@H](C)[C@H](NC(=O)[C@@H](NC(=O)[C@@H](N)CO)[C@@H](C)CC)C(=O)NC(CC(N)=O)CC(=O)N[C@@H](Cc1ccccc1)C(=O)N[C@@H](CCC(=O)O)C(=O)N[C@@H](CCCCN)C(=O)N[C@@H](CC(C)C)C(=O)O (stereo partly drawn) [Peptide 5] in the records?
[reply] 7

Cited source for all entries: patent US20060122107A1
